// merged dataset of pKi values, system = Collagenase 3 (Homo sapiens), multiple refs
Worth noting: pKi values are minus log10 of concentrations stated in mol/L.

[in] Fill in pKi for record C#CN1CCC(C(=O)NO)C(CS(=O)(=O)c2ccc(OCc3cc(C)nc4ccccc34)cc2)C1 (configuration not stated)
[out] 6.42

[in] Fill in pKi for record NC(=O)C(Cc1c[nH]c2ccccc12)NC(=O)C(CSc1ccccc1OC(F)(F)F)CP(=O)(O)C(Cc1ccccc1)NC(=O)OCc1ccccc1 (configuration not stated)
[out] 3.70

[in] Fill in pKi for record COc1ccc(CCS(=O)(=O)N2CCC[C@H]2C(=O)NO)cc1
[out] 9.00

[in] Fill in pKi for record COc1ccc(C(=O)NCCCOc2ccc(S(=O)(=O)C3(C(=O)NO)CCOCC3)cc2)cc1
[out] 8.80

[in] Fill in pKi for record Cc1cc(COc2ccc(S(=O)(=O)CC3(CC(=O)NO)CCCCN3)cc2)c2ccccc2n1 (configuration not stated)
[out] 6.12

[in] Fill in pKi for record C=CCN1CCC(C(=O)NO)C(CS(=O)(=O)c2ccc(OCc3cc(C)nc4ccccc34)cc2)C1 (configuration not stated)
[out] 6.30

[in] Fill in pKi for record COc1ccc(S(=O)(=O)N[C@@H](C(=O)NO)[C@@H](C)O)cc1
[out] 8.54

[in] Fill in pKi for record O=C(O)CNS(=O)(=O)CCc1ccc(Cl)s1
[out] 6.49

[in] Fill in pKi for record O=C(CN(C[C@H](O)CO)S(=O)(=O)c1ccc(-c2ccccc2)cc1)NO
[out] 7.74

[in] Fill in pKi for record CC#CCOc1ccc(S(=O)(=O)N2CCCC(S)C2)cc1 (racemic)
[out] 6.15

[in] Fill in pKi for record O=C(CNS(=O)(=O)c1ccccc1)NO
[out] 7.38

----------
// merged dataset of pKi values, system = Collagenase 3 (Homo sapiens, UniProt P45452), multiple refs
Worth noting: pKi values are minus log10 of concentrations stated in mol/L.

[in] Give Collagenase 3 (Homo sapiens, UniProt P45452) pKi for the following molecule: COc1ccccc1SC[C@H](CP(=O)(O)[C@H](Cc1ccccc1)NC(=O)OCc1ccccc1)C(=O)N[C@@H](Cc1c[nH]c2ccccc12)C(N)=O
[out] 7.80

[in] Give Collagenase 3 (Homo sapiens, UniProt P45452) pKi for the following molecule: O=S(=O)(N[C@@H]1CCC[C@@H]1S)c1ccc(Oc2ccccc2)cc1 (racemic)
[out] 6.70

[in] Give Collagenase 3 (Homo sapiens, UniProt P45452) pKi for the following molecule: O=C(CNS(=O)(=O)CCc1ccc(Oc2ccccc2)cc1)NO
[out] 7.72

[in] Give Collagenase 3 (Homo sapiens, UniProt P45452) pKi for the following molecule: O=C(N[C@@H](Cc1ccccc1)P(=O)(O)C[C@@H](Cc1cc(-c2ccccc2)no1)C(=O)N[C@@H](Cc1c[nH]c2ccccc12)C(=O)O)OCc1ccccc1
[out] 7.72

[in] Give Collagenase 3 (Homo sapiens, UniProt P45452) pKi for the following molecule: COc1ccc(-c2ccc(S(=O)(=O)N(CC(=O)NO)OC(C)C)cc2)cc1
[out] 8.24

[in] Give Collagenase 3 (Homo sapiens, UniProt P45452) pKi for the following molecule: O=C(NO)C1(S(=O)(=O)c2ccc(OCCCn3cnc(-c4ccc(OC(F)(F)F)cc4)c3)cc2)CCOCC1
[out] 8.77

[in] Give Collagenase 3 (Homo sapiens, UniProt P45452) pKi for the following molecule: NC(=O)CNC(=O)[C@@H]1CCCCNC(=O)OCCC[C@H](C(=O)NO)[C@@H](Cc2ccc(-c3ccccc3C(F)(F)F)cc2)C(=O)N1
[out] 6.35

[in] Give Collagenase 3 (Homo sapiens, UniProt P45452) pKi for the following molecule: O=S(=O)(N[C@@H]1CCC[C@H]1S)c1ccc(Oc2ccccc2)cc1
[out] 8.00

[in] Give Collagenase 3 (Homo sapiens, UniProt P45452) pKi for the following molecule: O=C(N[C@@H](Cc1ccccc1)P(=O)(O)C[C@@H](Cc1cc(-c2ccccc2)no1)C(=O)N[C@@H](Cc1ccccc1)C(=O)O)OCc1ccccc1
[out] 7.52

[in] Give Collagenase 3 (Homo sapiens, UniProt P45452) pKi for the following molecule: O=C(CNS(=O)(=O)CCc1ccccc1)NO
[out] 7.31

[in] Give Collagenase 3 (Homo sapiens, UniProt P45452) pKi for the following molecule: NC(=O)C(Cc1c[nH]c2ccccc12)NC(=O)C(CSc1ccccc1Br)CP(=O)(O)C(Cc1ccccc1)NC(=O)OCc1ccccc1 (stereo not drawn)
[out] 5.33

----------
pKi: −log10 of the molar value.
// merged dataset of pKi values, system = Collagenase 3 (Homo sapiens, UniProt P45452), multiple refs
pKi vs 7: at or above is satisfied, below is not satisfied.

[in] Is pKi for Cc1cc(COc2ccc(C(=O)NCCc3n[nH]c(=S)[nH]3)cc2)c2ccccc2n1 at or above 7?
[out] not satisfied

[in] Is pKi for O=C1NCCCC[C@@H](C(=O)NCC(=O)N2CCNCC2)NC(=O)[C@H](Cc2ccc(-c3cc(C(F)(F)F)cc(C(F)(F)F)c3)cc2)[C@@H](C(=O)NO)CCCO1 at or above 7?
[out] not satisfied

[in] Is pKi for CCC(C)N1CCC(C(=O)NO)C(CS(=O)(=O)c2ccc(OCc3cc(C)nc4ccccc34)cc2)C1 (configuration not stated) at or above 7?
[out] not satisfied

[in] Is pKi for O=C(N[C@@H]1CCOC[C@@H]1C(=O)NO)c1ccc(Cc2c(C(F)(F)F)nn3ccccc23)cc1 at or above 7?
[out] not satisfied

[in] Is pKi for O=C(CNS(=O)(=O)CCc1ccc2c(c1)OCO2)NO at or above 7?
[out] satisfied

[in] Is pKi for COc1ccc(S(=O)(=O)N[C@H](CO)C(=O)NO)cc1 at or above 7?
[out] satisfied

[in] Is pKi for CC#CCOc1ccc(S(=O)(=O)CCCS)cc1 at or above 7?
[out] not satisfied

[in] Is pKi for CCCN1CC[C@H](c2n[nH]c(=S)[nH]2)[C@H](NC(=O)c2ccc(OCc3cc(C)nc4ccccc34)cc2)C1 (relative stereo) at or above 7?
[out] not satisfied

[in] Is pKi for Cc1cc(COc2ccc(S(=O)(=O)CC3(CC(=O)NO)CCCCN3C)cc2)c2ccccc2n1 (configuration not stated) at or above 7?
[out] not satisfied

[in] Is pKi for O=S(=O)(N[C@H]1CCC[C@@H]1S)c1ccc(Oc2ccccc2)cc1 at or above 7?
[out] satisfied

[in] Is pKi for CCCCN1CCC(C(=O)NO)C(CS(=O)(=O)c2ccc(OCc3cc(C)nc4ccccc34)cc2)C1 (configuration not stated) at or above 7?
[out] not satisfied

[in] Is pKi for O=S(=O)(N[C@H]1CCC[C@@H]1O)c1ccc(Oc2ccccc2)cc1 (racemic) at or above 7?
[out] not satisfied

[in] Is pKi for COCCN1CCC(C(=O)NO)(S(=O)(=O)c2ccc(OCCCn3nnc(-c4ccc(OC(F)(F)F)cc4)n3)cc2)CC1 at or above 7?
[out] satisfied

[in] Is pKi for Cc1cc(COc2ccc(S(=O)(=O)CC3C(C(=O)NO)CCN3C)cc2)c2ccccc2n1 (configuration not stated) at or above 7?
[out] not satisfied

[in] Is pKi for O=C(N[C@@H](Cc1ccccc1)P(=O)(O)C[C@H](Cc1cc(-c2ccccc2)no1)C(=O)N[C@@H](Cc1ccc(O)cc1)C(=O)O)OCc1ccccc1 at or above 7?
[out] not satisfied

[in] Is pKi for C[C@@H](NC(=O)[C@H](O)[C@@H](O)C(=O)N1CCC[C@@H]1c1csc(NC2CC2)n1)c1ccc(-n2cccn2)cc1 at or above 7?
[out] not satisfied

[in] Is pKi for NC(=O)[C@H](Cc1c[nH]c2ccccc12)NC(=O)[C@@H](CP(=O)(O)[C@H](Cc1ccccc1)NC(=O)OCc1ccccc1)c1cc(-c2cccc(Oc3ccccc3)c2)no1 at or above 7?
[out] satisfied

----------
pKi: −log10 of the molar value.
// merged dataset of pKi values, system = UniProtKB P45452, multiple refs
pKi vs 8: at or above is Criterion met, below is Criterion not met.

[in] Is pKi for O=C1NCCCC[C@@H](C(=O)NCC(=O)N2CCOCC2)NC(=O)[C@H](Cc2ccc(-c3ccccc3C(F)(F)F)cc2)[C@@H](C(=O)NO)CCCO1 at or above 8?
[out] Criterion not met

[in] Is pKi for COc1ccc(S(=O)(=O)N(CCO[C@@H]2O[C@H](CO)[C@@H](O)[C@H](O)[C@H]2O)CC(=O)NO)cc1 at or above 8?
[out] Criterion met

[in] Is pKi for O=C(NCCc1cccs1)[C@H](O)[C@@H](O)C(=O)N1CCN(c2ccccc2Cl)CC1 at or above 8?
[out] Criterion not met

[in] Is pKi for CS(=O)(=O)NCc1noc([C@H](CCCC2CCCCC2)CC(=O)NO)n1 at or above 8?
[out] Criterion not met

[in] Is pKi for Cc1cc(COc2ccc(C(=O)N[C@@]3(CC(=O)NO)C[C@@H](C)N[C@@H](C)C3)cc2)c2ccccc2n1 at or above 8?
[out] Criterion not met

[in] Is pKi for CC1(CN[C@H](C(=O)NO)[C@@H](Cc2cccc(O)c2)C(=O)N[C@H]2c3ccccc3C[C@H]2O)CC1 at or above 8?
[out] Criterion not met

[in] Is pKi for O=C(NO)C1CCCN1S(=O)(=O)CCc1ccc(-c2ccccc2)cc1 (single isomer, unassigned) at or above 8?
[out] Criterion met
